system: HT29 colon; assay: NCI-60 one-dose screen, 48 h; details: 10 µM unless noted
This is part of a sample that, as a whole, favours compounds with a hit. Of some 83,000 tested, about 20% had one in any assay. Active and inactive are the calls of the source. Rule for the calls: active = growth percent below 10; inactive = the rest.
Outcome codes: active, inactive

compound	assigned_label
O=C1NC(=O)[C@@H](c2cn3c4c(cccc24)CCC3)[C@@H]1c1c[nH]c2ccccc12	active
CC(C)(C)CC(C)(C)Nc1c(-c2c(O)c3ccccc3oc2=O)nc2c(Cl)cc(C(F)(F)F)cn12	inactive
Cc1[nH]n(C(N)=S)c(=O)c1N=Nc1ccc(S(=O)(=O)Nc2ccncn2)cc1	inactive
Cc1cc(Nc2ncnc3ccc(NC4=NC(C)(C)CO4)cc23)ccc1Oc1ccn2ncnc2c1	active
Cc1cc2c(-c3nc4ccccn4c3Nc3cccc4ccccc34)c(O)c(O)cc2c(O)c1-c1c(C)cc2c(-c3nc4ccccn4c3Nc3cccc4ccccc34)c(O)c(O)cc2c1O	inactive
CN[C@@H]1C[C@H]2O[C@@](C)([C@@H]1OC)n1c3ccccc3c3c4c(c5c6ccccc6n2c5c31)C(=O)N[C@H]4O	active
CC(C)NC[C@@H](C(=O)N1CCN(c2ncnc3c2[C@H](C)C[C@H]3O)CC1)c1ccc(Cl)cc1	inactive
CC/C=C\C[C@H]1C/C=C2/C(=O)C=C[C@@H]2C/C=C\CCCC(=O)O1	active
NC1(C(=O)N[C@@H](CCO)c2ccc(Cl)cc2)CCN(c2ncnc3[nH]ccc23)CC1	inactive
CN1CCN(CC(=O)Nc2ccc(-c3nc4ccccc4s3)cc2)CC1	inactive
CCCCN1CCCC[C@@H]1C(=O)N[C@H](C(=O)N(C)[C@H](CCc1nc(C(=O)N[C@@H](Cc2ccccc2)C[C@H](C)C(=O)OC)cs1)C(C)C)C(C)C	inactive
Cc1nn(-c2nc3ccccc3[nH]2)c2c1C(c1ccc(O)cc1)CC(=O)N2 (stereo not drawn)	inactive
Nc1c(Cl)cccc1[N+](=O)[O-]	inactive
Cc1ccsc1C(NC(=O)c1ccccc1)c1cc(Cl)c2cccnc2c1O (stereo not drawn)	inactive
Cc1ccccc1Nc1nc2nonc2nc1Nc1cccc(C)c1C	inactive
CCN(CC)CCNc1ccc(N=Nc2cnc3ccccc3c2)c2ccccc12	active
CCN(CC)CCCC(C)Nc1cc(-c2ccc(C(F)(F)F)cc2)c(C#N)c2nc3ccccc3n12 (stereo not drawn)	active
CC(=O)C(C(C)=O)C(c1ccccc1)C(C(C)=O)C(C)=O	inactive
